Method Notes: HepG2 liver cancer cell viability effects, profiling panel, resazurin fluorescence, 24 h, PK04 Diversity Set (AID 1172); further: test concentration not given here
Experimental Conditions: higher = more signal
Quantity Kind: z-score

1. OCCCC1=CC(c2ccc(CN3CCCC3)cc2)N(Cc2sc3ccccc3c2Cl)CC1 (stereo not drawn); -0.516
2. CC(C)[Si](C#CCCCC#N)(O[C@H](c1ccccc1)c1cn([C@H](CO)Cc2ccccc2)nn1)C(C)C; 0.374
3. O=C1OCCC/C=C\[C@H]2OC34C=CCN(CCN5CCOCC5)C(=O)[C@H]3N(CCCCCCO)C(=O)[C@@H]4C12 (stereo partly drawn); 0.287
4. N#Cc1ccc(NN2C(C(O)c3ccc(F)cc3)C=CC3C(=O)N(c4ccccc4)C(=O)C32)cc1 (stereo not drawn); -0.587
5. COc1ccc([Si](C)(C)[C@H]2[C@H](CCn3cc([C@H](O)c4ccccc4)nn3)O[C@@]3(C(=O)N(Cc4ccc(N5C(=O)c6cccc7cccc5c67)cc4)c4ccccc43)[C@@H]2C)cc1; -0.0876
6. O=C(N1CCCCC1)[C@@]1(CCS(=O)(=O)c2ccccc2)COC(c2ccc(OCCCO)cc2)=N1; -0.27
7. C=CCNC(=O)[C@@H]1[C@H]2C(=O)O[C@H](c3ccccc3)[C@H](c3ccccc3)N2[C@H](c2ccc(O)cc2)[C@@]12C(=O)N(C(=O)OCCOC)c1ccc(C#CC3(O)CCCCCC3)cc12; 0.919
8. O=C1O[C@H](c2ccccc2)[C@H](c2ccccc2)N2[C@H]1[C@@H](C(=O)Nc1nc3ccccc3s1)[C@]1(C(=O)Nc3ccccc31)[C@H]2c1ccc(OCCO)cc1; 0.0114
